The measurements presented in this section are drawn from ChEMBL document CHEMBL4819003.

- test.summary: Cmax in male Sprague-Dawley rat at 5 mg/kg, po measured for 36 hrs by LC-MS/MS analysis
- Format: ADME, organism-based
- Design: route oral, time 36 hrs, dose 5 mg/kg
- experimental.conditions: in vivo
metric.name: Cmax (ng/mL)

{"line.notation": "CS(=O)(=O)[O-].FC(F)(F)c1ccc([C+](c2c[nH]c3ccccc23)c2c[nH]c3ccccc23)cc1", "metric.name": "Cmax", "unit.of.measurement": "ng/mL", "test.result": 143}

----------
- test.summary: Cmax in male/female Sprague-Dawley rat at 5 mg/kg, po measured for 36 hrs by LC-MS/MS analysis
- Format: ADME, organism-based
- Set-up: route oral, time 36 hrs, dose 5 mg/kg
- experimental.conditions: both, in vivo

{"line.notation": "CS(=O)(=O)[O-].Cn1cc([C+](c2ccc(C(F)(F)F)cc2)c2c[nH]c3ccccc23)c2ccccc21", "Cmax, µg/mL": 0.0579}

----------
- test.summary: Half life in male/female Sprague-Dawley rat at 0.5 mg/kg, iv measured for 36 hrs by LC-MS/MS analysis
- Type: ADME, organism-based
- experimental.conditions: both, in vivo
metric.name: half-life (min)

{"line.notation": "CS(=O)(=O)[O-].Cn1cc([C+](c2ccc(C(F)(F)F)cc2)c2c[nH]c3ccccc23)c2ccccc21", "test.result": 160}
